# TARGET SYSTEM: human AspH (His6-AspH315–758) (Homo sapiens)
# Construct: N-Terminally His6-tagged human AspH315–758 (His6-AspH315–758) was produced in Escherichia coli BL21 (DE3) cells; made in house; host or cells: Escherichia coli BL21 (DE3), pET-28a(+) vector
# ASSAY NOTES: SPE-MS AspH inhibition assay (hFX-CP101-119 substrate hydroxylation)
# Format: biochemical
# CONDITION SUMMARY: AspH-inhibitor screening, Plate 1-duplicate
ENDPOINT LABEL: Plate 1-duplicate (% inhibition) (%)

Worked examples follow.
[Q] Which Plate 1-duplicate (% inhibition) reading was recorded for the compound c1ccc2c(CCNc3ccc(Nc4ccncc4)cc3)c[nH]c2c1 [JNJ 26854165 (Serdemetan)] ?
[A] 30.40

[Q] Request: COc1cc([C@@H]2c3cc4c(cc3[C@@H](O[C@@H]3O[C@@H]5CO[C@@H](c6cccs6)O[C@H]5[C@H](O)[C@H]3O)[C@H]3COC(=O)[C@H]23)OCO4)cc(OC)c1O [Teniposide]
[A] 6.57

[Q] Request: COc1ccc(-c2ccc3c(N4CCOC[C@@H]4C)nc(N4CCOC[C@@H]4C)nc3n2)cc1CO
[A] 4.92

a = C=C(c1ccc(C(=O)O)cc1)c1cc2c(cc1C)C(C)(C)CCC2(C)C
b = Nc1cc(C(F)(F)F)c(-c2cc(N3CCOCC3)nc(N3CCOCC3)n2)cn1
c = O=C(/C=C/c1cccc(S(=O)(=O)Nc2ccccc2)c1)NO
[Q] Rank ascending by Plate 1-duplicate (% inhibition). # output: labels, in the requested order
[A] b, a, c
(b: -1.07%, a: -0.39%, c: 96.98%)

====

Catalogue of compounds with associated Plate 1 (% inhibition)
# TARGET SYSTEM: human AspH (His6-AspH315–758) (Homo sapiens)
# Construct: N-Terminally His6-tagged human AspH315–758 (His6-AspH315–758) was produced in Escherichia coli BL21 (DE3) cells; made in house; host or cells: Escherichia coli BL21 (DE3), pET-28a(+) vector
# ASSAY NOTES: SPE-MS AspH inhibition assay (hFX-CP101-119 substrate hydroxylation)
# Type: biochemical
Numeric answer only, unit % assumed.

[Q] Which Plate 1 (% inhibition) reading was recorded for the compound CS(=O)(=O)CCNCc1ccc(-c2ccc3ncnc(Nc4ccc(OCc5cccc(F)c5)c(Cl)c4)c3c2)o1.Cc1ccc(S(=O)(=O)O)cc1.Cc1ccc(S(=O)(=O)O)cc1 [Lapatinib, di-p-toluenesulfonate salt] ?
[A] -29.52

[Q] Request: O=P1(N(CCCl)CCCl)NCCCO1 (stereo not drawn) [Cyclophosphamide]
[A] 10.37

[Q] Request: C[C@]12CC[C@@H]3c4ccc(OC(=O)N(CCCl)CCCl)cc4CC[C@H]3[C@@H]1CC[C@@H]2OP(=O)(O)O [Estramustine sodium phosphate]
[A] 70.54

====

# TARGET SYSTEM: human AspH (His6-AspH315–758) (Homo sapiens)
# Construct: N-Terminally His6-tagged human AspH315–758 (His6-AspH315–758) was produced in Escherichia coli BL21 (DE3) cells; made in house; host or cells: Escherichia coli BL21 (DE3), pET-28a(+) vector
# ASSAY NOTES: SPE-MS AspH inhibition assay (hFX-CP101-119 substrate hydroxylation)
# Assay type: biochemical
# CONDITION SUMMARY: AspH-inhibitor screening, Plate 1-duplicate, substrate conversion
ENDPOINT LABEL: Plate 1-duplicate (% conversion) (%)

Worked examples follow.
[Q] Which Plate 1-duplicate (% conversion) reading was recorded for the molecule CCN1CCN(c2ccc(Nc3cc(N(C)C(=O)Nc4c(Cl)c(OC)cc(OC)c4Cl)ncn3)cc2)CC1 [NVP-BGJ398] ?
[A] 62.20

[Q] Request: O=C(O)C(=O)O.[NH-][C@@H]1CCCC[C@H]1[NH-].[Pt+2] [Oxaliplatin]
[A] 46.45

[Q] Request: Cc1cc(Nc2ncc(Cl)c(Nc3ccccc3S(=O)(=O)C(C)C)n2)c(OC(C)C)cc1C1CCNCC1 [Ceritinib]
[A] 71.70

I = CS(=O)(=O)c1ccc(C2=C(c3ccccc3)C(=O)OC2)cc1 [Rofecoxib (Vioxx)]
II = Cn1c(Nc2ccc(C(F)(F)F)cc2)nc2cc(Oc3ccnc(-c4ncc(C(F)(F)F)[nH]4)c3)ccc21 [RAF265]
III = COc1cc2c(Oc3ccc(NC(=O)C4(C(=O)Nc5ccc(F)cc5)CC4)cc3F)ccnc2cc1OCCCN1CCOCC1 [XL880 (Foretinib)]
[Q] Order the records by Plate 1-duplicate (% conversion), with each subsequent value no larger than the one before. # output: labels, in the requested order
[A] III, I, II

A = CCS(=O)(=O)c1cccc(-c2cc(C(=O)NC3CCN(C)CC3)c(C)c3[nH]c4ncc(C)cc4c23)c1 [TAK-901]
B = CN(Cc1cnc2nc(N)nc(N)c2n1)c1ccc(C(=O)N[C@@H](CCC(=O)O)C(=O)O)cc1 [Methotrexate]
[Q] Of the two listed items, which has the higher Plate 1-duplicate (% conversion)? First: A Second: B Please identify the chosen entry by its label.
[A] A

====

# TARGET SYSTEM: human AspH (His6-AspH315–758) (Homo sapiens)
# Construct: N-Terminally His6-tagged human AspH315–758 (His6-AspH315–758) was produced in Escherichia coli BL21 (DE3) cells; made in house; host or cells: Escherichia coli BL21 (DE3), pET-28a(+) vector
# ASSAY NOTES: SPE-MS AspH inhibition assay (hFX-CP101-119 substrate hydroxylation)
# Type: biochemical
# CONDITION SUMMARY: AspH-inhibitor screening, Plate 1-duplicate
ENDPOINT LABEL: Plate 1-duplicate (% inhibition) (%)

A = CNC(=O)c1ccc(N2C(=S)N(c3ccc(C#N)c(C(F)(F)F)c3)C(=O)C2(C)C)cc1F [MDV3100_Enzaluamide]
B = CC[C@H](C)C(=O)O[C@H]1C[C@H](O)C=C2C=C[C@H](C)[C@H](CC[C@@H](O)C[C@@H](O)CC(=O)O)[C@H]21
[Q] Of the two listed items, which has the higher Plate 1-duplicate (% inhibition)? First: A Second: B Please identify the chosen entry by its label.
[A] B

A = CCc1cnn2c(NCc3ccc[n+]([O-])c3)cc(N3CCCC[C@H]3CCO)nc12 [Dinaciclib (SCH727965)]
B = CN(C)/N=N/c1[nH]cnc1C(N)=O
[Q] Of the two listed items, which has the higher Plate 1-duplicate (% inhibition)? First: A Second: B Please identify the chosen entry by its label.
[A] B

====

# TARGET SYSTEM: human AspH (His6-AspH315–758) (Homo sapiens, UniProt Q12797)
# Construct: N-Terminally His6-tagged human AspH315–758 (His6-AspH315–758) was produced in Escherichia coli BL21 (DE3) cells; made in house; host or cells: Escherichia coli BL21 (DE3), pET-28a(+) vector
# Sequence (Q12797 315-758): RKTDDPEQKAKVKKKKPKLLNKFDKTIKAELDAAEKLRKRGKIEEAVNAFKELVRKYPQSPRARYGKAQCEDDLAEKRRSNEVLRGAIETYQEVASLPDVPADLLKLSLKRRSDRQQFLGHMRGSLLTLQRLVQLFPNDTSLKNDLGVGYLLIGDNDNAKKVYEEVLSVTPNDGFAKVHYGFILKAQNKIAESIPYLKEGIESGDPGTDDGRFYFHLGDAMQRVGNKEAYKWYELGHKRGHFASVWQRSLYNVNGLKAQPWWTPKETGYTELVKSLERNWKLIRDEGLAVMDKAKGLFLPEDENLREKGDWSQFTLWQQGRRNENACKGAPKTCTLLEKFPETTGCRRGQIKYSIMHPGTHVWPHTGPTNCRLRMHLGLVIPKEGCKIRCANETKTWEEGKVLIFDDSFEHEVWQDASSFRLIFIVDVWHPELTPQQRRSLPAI
# ASSAY NOTES: SPE-MS AspH inhibition assay (hFX-CP101-119 substrate hydroxylation)
# Type: biochemical
# CONDITION SUMMARY: AspH-inhibitor screening, 384-well Plate 1, substrate conversion
ENDPOINT LABEL: Plate 1 (% conversion) (%)

[Q] Which Plate 1 (% conversion) reading was recorded for the compound O=P(O)(O)C(O)(Cn1ccnc1)P(=O)(O)O ?
[A] 40.70

1 = CNC(=O)c1ccc(N2C(=S)N(c3ccc(C#N)c(C(F)(F)F)c3)C(=O)C2(C)C)cc1F [MDV3100_Enzaluamide]
2 = C#Cc1cccc(Nc2ncnc3cc(OC)c(OCCCCCCC(=O)NO)cc23)c1
[Q] Decide: 1 or 2 , by lowest recorded Plate 1 (% conversion). Please identify the chosen entry by its label.
[A] 2

I = Nc1nc2[nH]cc(CCc3ccc(C(=O)N[C@@H](CCC(=O)[O-])C(=O)[O-])cc3)c2c(=O)[nH]1.O.O.O.O.O.O.O.[Na+].[Na+] [Pemetrexed, Disodium salt, Heptahydrate]
II = CC1(C)CCC(c2ccc(Cl)cc2)=C(CN2CCN(c3ccc(C(=O)NS(=O)(=O)c4ccc(N[C@H](CCN5CCOCC5)CSc5ccccc5)c(S(=O)(=O)C(F)(F)F)c4)cc3)CC2)C1
[Q] Decide: I or II , by lowest recorded Plate 1 (% conversion). Please identify the chosen entry by its label.
[A] II
(II: 8.10%, I: 46.75%)

====

# TARGET SYSTEM: human AspH (His6-AspH315–758) (Homo sapiens, UniProt Q12797)
# Construct: N-Terminally His6-tagged human AspH315–758 (His6-AspH315–758) was produced in Escherichia coli BL21 (DE3) cells; made in house; host or cells: Escherichia coli BL21 (DE3), pET-28a(+) vector
# ASSAY NOTES: SPE-MS AspH inhibition assay (hFX-CP101-119 substrate hydroxylation)
# Assay type: biochemical
# CONDITION SUMMARY: AspH-inhibitor screening, Plate 1-duplicate, substrate conversion
Structures can show the parent of a compound that is named as a salt.
ENDPOINT LABEL: Plate 1-duplicate (% conversion) (%)

Worked examples follow.
[Q] API: value(readout=Plate 1-duplicate (% conversion), system=human AspH (His6-AspH315–758) (Homo sapiens, UniProt Q12797)) for record CN(C)C[C@@H]1CCn2cc(c3ccccc32)C2=C(C(=O)NC2=O)c2cn(c3ccccc23)CCO1.CS(=O)(=O)O [LY 333531 mesylate_Ruboxistaurin]
[A] 54.84

[Q] Request: CCN(CC)CCCC(C)Nc1c2ccc(Cl)cc2nc2ccc(OC)cc12 (stereo not shown) [Quinacrine HCl]
[A] 47.81

I = COc1nc(N)nc2c1ncn2[C@@H]1O[C@H](CO)[C@@H](O)[C@@H]1O [Nelarabine]
II = CO[C@@H]1[C@H](N(C)C(=O)c2ccccc2)C[C@H]2O[C@]1(C)n1c3ccccc3c3c4c(c5c6ccccc6n2c5c31)C(=O)NC4 [PKC412_Midostaurin]
[Q] Of the two listed items, which has the higher Plate 1-duplicate (% conversion)? First: I Second: II Please identify the chosen entry by its label.
[A] I
(I: 51.33%, II: 6.90%)

1 = NC1(c2ccc(-c3nc4ccn5c(=O)[nH]nc5c4cc3-c3ccccc3)cc2)CCC1 [MK-2206]
2 = COc1cc(O)c2c(c1)/C=C/C[C@H](O)[C@H](O)C(=O)/C=C\C[C@H](C)OC2=O [(5Z)-7-Oxozeaenol]
[Q] Decide: 1 or 2 , by lowest recorded Plate 1-duplicate (% conversion). Please identify the chosen entry by its label.
[A] 2
(2: 40.31%, 1: 58.96%)

The values you see were collected from paper PMC7588595.
